Test system: MDA-MB-231
test: NCI tumour cell line growth inhibition, 48 h
The source made the active and inactive calls. Cut-off read from the data, not from the text of the source: active = GI50 up to about 1.1 µM and inactive = higher.
Outcome codes: True (active), False (inactive)

molecule: COc1ccc2cc(NC(=O)N/N=C\c3ccc([N+](=O)[O-])cc3)ccc2c1
assigned-category: False

molecule: O=C1C(O)=C(C(CCc2ccccc2)C2=C(O)C(=O)c3ccccc3C2=O)C(=O)c2ccccc21
assigned-category: False

molecule: NC(CNO)C(=O)O (stereo not given)
assigned-category: False

molecule: Cc1c(/N=N/c2ccc([N+](=O)[O-])cc2)nc2scc(-c3ccccc3)n12
assigned-category: False

molecule: O=C1NC(Nc2ccccc2)=NC(C(F)(F)F)(C(F)(F)F)N1
assigned-category: False

molecule: CC1CC/C(=C\c2ccc(F)cc2)C2=C1C(c1ccc(F)cc1)n1c(s/c(=C/c3cccc(Br)c3)c1=O)=N2 (stereo not given)
assigned-category: False

molecule: O=C1NC(c2ccccc2)N=C2Oc3ccccc3C=C12 (stereo not given)
assigned-category: True

molecule: Cc1ccc(S(=O)(=O)CC2(Br)CCc3ccccc3C2=O)cc1 (stereo not given)
assigned-category: False

molecule: CC(=O)[C@@]1(O)CC[C@H]2[C@@H]3C[C@H](C)C4=CC(=O)CC[C@]4(C)[C@H]3[C@@H](O)C[C@@]21C
assigned-category: False

molecule: CC(=O)NC1C(OCc2ccccc2)OC(CO)C(O)C1OC(C)C(=O)NC(C(=O)NC(CCC(=O)NCCCCNc1c2ccccc2nc2cccc([N+](=O)[O-])c12)C(N)=O)C(C)C (stereo not given)
assigned-category: False

Ref: ChEMBL document CHEMBL1201862
